Sourced from patent US11236046B2

Tested on: human TRPA1 (Homo sapiens (Human))
Sequence (O75762 whole entry): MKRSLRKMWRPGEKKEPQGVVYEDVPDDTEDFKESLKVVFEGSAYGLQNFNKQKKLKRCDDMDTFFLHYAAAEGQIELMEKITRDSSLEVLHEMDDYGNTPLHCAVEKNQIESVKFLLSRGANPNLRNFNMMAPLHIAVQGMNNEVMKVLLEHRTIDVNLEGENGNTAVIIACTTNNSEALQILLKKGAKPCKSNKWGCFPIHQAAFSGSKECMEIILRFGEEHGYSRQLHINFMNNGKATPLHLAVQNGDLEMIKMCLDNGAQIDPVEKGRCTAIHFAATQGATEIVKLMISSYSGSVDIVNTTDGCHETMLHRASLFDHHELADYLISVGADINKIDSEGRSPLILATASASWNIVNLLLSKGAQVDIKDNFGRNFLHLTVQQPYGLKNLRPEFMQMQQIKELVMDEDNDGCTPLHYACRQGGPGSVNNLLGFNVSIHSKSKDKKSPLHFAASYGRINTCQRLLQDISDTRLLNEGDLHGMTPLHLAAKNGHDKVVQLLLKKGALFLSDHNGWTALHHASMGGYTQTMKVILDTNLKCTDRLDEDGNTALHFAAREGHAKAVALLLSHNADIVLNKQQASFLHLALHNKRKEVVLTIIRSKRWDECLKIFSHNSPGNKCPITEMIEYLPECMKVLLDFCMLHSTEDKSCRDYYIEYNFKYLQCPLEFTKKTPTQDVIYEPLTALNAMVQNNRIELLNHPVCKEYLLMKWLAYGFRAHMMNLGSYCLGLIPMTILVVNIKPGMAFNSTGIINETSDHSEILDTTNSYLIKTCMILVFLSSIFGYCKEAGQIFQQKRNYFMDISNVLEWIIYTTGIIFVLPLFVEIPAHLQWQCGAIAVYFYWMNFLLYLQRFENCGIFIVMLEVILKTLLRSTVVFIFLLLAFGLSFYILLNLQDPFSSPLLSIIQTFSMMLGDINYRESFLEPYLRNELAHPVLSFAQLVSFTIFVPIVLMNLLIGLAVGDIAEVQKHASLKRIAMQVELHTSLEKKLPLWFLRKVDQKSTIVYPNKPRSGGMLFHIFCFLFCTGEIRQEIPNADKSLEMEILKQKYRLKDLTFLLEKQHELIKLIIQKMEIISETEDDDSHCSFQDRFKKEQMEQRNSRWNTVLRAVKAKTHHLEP
Assay: FLIPR Tetra calcium influx assay, block of cinnamaldehyde-induced calcium influx in CHO cells expressing TRPA1 (human)
Assay type: cell-based
Setup conditions: 20 min compound incubation, 75 uM cinnamaldehyde (~EC80), Hill coefficient fixed to 1.5, read-out: hTRPA1 AUC IC50
Reported endpoint: IC50 (nM)
Provide the reading as a plain figure in nM.

Lookup: Give IC50 for O=C(NCc1cc(-c2ccc(OC(F)(F)F)c(F)c2)ncn1)[C@@H]1C[C@@H](F)CN1S(=O)(=O)c1ccc(F)cc1 [Example 104] tested on human TRPA1 (Homo sapiens (Human)).
Found: 72

Lookup: Give IC50 for O=C(NCc1cc(-c2cnc(C(F)(F)F)nc2)c(Cl)cn1)[C@@H]1C[C@@H](F)CN1S(=O)(=O)c1ccc(F)cc1 [Example 192] tested on human TRPA1 (Homo sapiens (Human)).
Found: 42

Lookup: Give IC50 for C[C@@]1(C(=O)NCc2cc(-c3ccc(C(F)(F)F)cc3)ncn2)C[C@@H](F)CN1S(=O)(=O)c1ccc(F)cc1 (single isomer, unassigned) [Example 138] tested on human TRPA1 (Homo sapiens (Human)).
Found: 25

Lookup: Give IC50 for O=C(NCc1cc(-c2ccc(C(F)(F)F)nc2)c(F)cn1)[C@@H]1C[C@@H](F)CN1S(=O)(=O)c1ccc(F)cc1 [Example 140] tested on human TRPA1 (Homo sapiens (Human)).
Found: 20

Lookup: Give IC50 for O=C(NCc1cc(N2CCC(C(F)(F)F)CC2)c(F)cn1)[C@@H]1C[C@@H](F)CN1S(=O)(=O)c1ccc(F)cc1 [Example 144] tested on human TRPA1 (Homo sapiens (Human)).
Found: 56

Lookup: Give IC50 for N#Cc1ccc(-c2cnc(C(F)(F)F)nc2)cc1CNC(=O)[C@@H]1C[C@@H](F)CN1S(=O)(=O)c1ccc(F)cc1 [Example 164] tested on human TRPA1 (Homo sapiens (Human)).
Found: 32

Lookup: Give IC50 for O=C(NCc1cc(F)cc(-n2ccc(C(F)(F)F)cc2=O)c1)[C@@H]1C[C@@H](F)CN1S(=O)(=O)c1ccc(F)cc1 [Example 85] tested on human TRPA1 (Homo sapiens (Human)).
Found: 771

Lookup: Give IC50 for O=C(NCc1cc(-c2ccc(C(F)(F)F)c(F)c2)ncn1)[C@@H]1C[C@@H](F)CN1S(=O)(=O)c1ccc(F)cc1 [Example 114] tested on human TRPA1 (Homo sapiens (Human)).
Found: 26

Lookup: Give IC50 for C[C@@]1(F)C[C@@H](C(=O)NCc2cc(F)cc(-c3ccc(C(F)(F)F)nn3)c2)N(S(=O)(=O)c2ccc(F)cc2)C1 [Example 45] tested on human TRPA1 (Homo sapiens (Human)).
Found: 24

Lookup: Give IC50 for O=C(NCc1cc(-c2ccc(OC(F)F)cc2)ncn1)[C@@H]1C[C@@H](F)CN1S(=O)(=O)c1ccc(F)cc1 [Example 64] tested on human TRPA1 (Homo sapiens (Human)).
Found: 41

Lookup: Give IC50 for O=C(NCc1cc(F)cc(-c2nc(C(F)(F)F)cs2)c1)[C@@H]1C[C@@H](F)CN1S(=O)(=O)c1ccc(F)cc1 [Example 175] tested on human TRPA1 (Homo sapiens (Human)).
Found: 86

Lookup: Give IC50 for O=C(NCc1cc(-c2ccc(C(F)F)cc2)ncn1)[C@@H]1[C@@H](F)CCN1S(=O)(=O)c1ccc(F)cc1 [Example 55] tested on human TRPA1 (Homo sapiens (Human)).
Found: 33

Lookup: Give IC50 for C[C@@H]1CC[C@@H](C(=O)NCc2cc(-c3ccc(C(F)(F)F)nc3)ncn2)N1S(=O)(=O)c1ccc(F)cc1 [Example 39] tested on human TRPA1 (Homo sapiens (Human)).
Found: 45
